Would you mind telling me the reported IC50 of each entry?
Target: Wee1 kinase domain (Homo sapiens, UniProt P30291)
Construct: Wee1 kinase domain was purchased from Carna (catalog #05-177); purchased Carna 05-177
Sequence (P30291 299-569 limits assumed): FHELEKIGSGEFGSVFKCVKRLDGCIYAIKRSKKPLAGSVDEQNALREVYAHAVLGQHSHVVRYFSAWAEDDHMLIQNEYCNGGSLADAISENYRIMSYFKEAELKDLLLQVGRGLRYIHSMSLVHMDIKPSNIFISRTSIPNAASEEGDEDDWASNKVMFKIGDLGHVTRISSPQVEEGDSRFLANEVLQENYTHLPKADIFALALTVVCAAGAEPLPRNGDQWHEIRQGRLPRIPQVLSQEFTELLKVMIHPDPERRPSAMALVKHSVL
Experiment: Wee1 Kinase Biochemical Assay (ADP-Glo)
Details: Wee1 kinase domain, 15 uM ATP, ADP-Glo
Description: Wee1 Kinase Biochemical Assay Protocol Wee1 kinase domain was purchased from Carna (catalog #05-177). Wee1 kinase activity was determined with Poly(Lys,Tyr 4:1) hydrobromide as a substrate (Sigma-Aldrich) and by measuring ADP production using the ADP-Glo Kinase Assay kit (Promega) following the manufacturer's instructions. […] The ADP-Glo signal was measured using the Envision plate reader and the percentage inhibition of kinase activity calculated for each inhibitor tested. […]

Given the molecule C[C@H]1COC(=O)N1c1cccc(N2c3nc(Nc4ccc(O[C@H]5CCN(C)C5)cc4)ncc3[C@@]3(C)COC(C)(C)C[C@@H]23)n1 (single isomer, unassigned) , what is its reported IC50?
< 10 nM

Need IC50, item CN1CC(c2ccc(Nc3ncc4c(n3)N(c3cccc(N=S(C)(C)=O)n3)[C@H]3CC(C)(C)OC[C@@]43C)cn2)C1 (single isomer, unassigned)
100 to 1000 nM

For the molecule CN1CC[C@H](Oc2ccc(Nc3ncc4c(n3)N(c3cccc(N=S(C)(C)=O)n3)[C@@H]3CC(C)(C)OC[C@]43C)cc2)C1 (single isomer, unassigned) , what IC50 is on record?
< 10 nM

Give its IC50 value. Item: CN1CC[C@H](c2ccc(Nc3ncc4c(n3)N(c3cccc(N=S(C)(C)=O)n3)[C@@H]3CC(C)(C)OC[C@]43C)cc2)C1 (single isomer, unassigned)
< 10 nM

Look up IC50: C[C@H]1COC(=O)N1c1cccc(N2c3nc(Nc4ccc(C5CCN(C)CC5)cc4)ncc3[C@]3(C)COC(C)(C)C[C@H]23)n1 (single isomer, unassigned)
10 to 100 nM

Reported IC50 for CC1(C)C[C@H]2N(c3cccc(N=S(C)(C)=O)n3)c3nc(Nc4ccc5cnnn5c4)ncc3[C@@]2(C)CO1 (single isomer, unassigned) : what is it?
< 10 nM

Sample Cc1cc(Nc2ncc3c(n2)N(c2cccc(N4C(=O)OC[C@@H]4C)n2)[C@@H]2CC(C)(C)OC[C@]32C)ccc1[C@@H]1CCNC1 (single isomer, unassigned) — what was its IC50?
< 10 nM

Would you kindly share the measured IC50 for CNCc1cccc(N2c3nc(Nc4ccc(N5CCCOCC5)cc4)ncc3[C@@]3(C)COC(C)(C)C[C@@H]23)n1 (single isomer, unassigned) ?
< 10 nM

Find the recorded IC50 belonging to CN1CCC[C@@H](n2cc(Nc3ncc4c(n3)N(c3cccc(N=S(C)(C)=O)n3)[C@@H]3CC(C)(C)OC[C@]43C)cn2)C1 (single isomer, unassigned) and report it.
< 10 nM

Field request: IC50 | item: CN1Cc2cc(Nc3ncc4c(n3)N(c3cccc(N=S(C)(C)=O)n3)[C@H]3CC(C)(C)OC[C@@]43C)cnc2C1 (single isomer, unassigned)
≥ 1000 nM

Quick check: IC50 of CN[C@@H](Cc1ccc(Nc2ncc3c(n2)N(c2cccc(N4C(=O)OC[C@@H]4C)n2)[C@@H]2CC(C)(C)OC[C@]32C)cc1)C(=O)O (single isomer, unassigned) ?
< 10 nM
